Target: Peroxisome proliferator-activated receptor delta (Homo sapiens, UniProt Q03181)
Sequence (Q03181 whole entry): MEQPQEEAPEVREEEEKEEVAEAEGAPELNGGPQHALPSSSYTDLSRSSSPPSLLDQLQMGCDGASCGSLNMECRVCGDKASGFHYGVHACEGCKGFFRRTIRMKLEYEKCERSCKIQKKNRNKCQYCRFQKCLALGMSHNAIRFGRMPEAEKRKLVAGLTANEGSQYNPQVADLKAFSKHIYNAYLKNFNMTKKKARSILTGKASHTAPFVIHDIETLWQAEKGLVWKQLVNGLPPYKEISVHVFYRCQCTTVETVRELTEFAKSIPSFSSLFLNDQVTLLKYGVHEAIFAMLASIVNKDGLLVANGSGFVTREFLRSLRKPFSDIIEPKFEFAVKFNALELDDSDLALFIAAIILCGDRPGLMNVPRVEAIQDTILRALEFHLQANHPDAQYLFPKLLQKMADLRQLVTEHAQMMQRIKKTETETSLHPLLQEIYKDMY
Experiment: Transactivation of human GAL4-fused PPARdelta LBD expressed in African green monkey COS7 cells co-expressing 5Gal4 pGL3 TK Luc after overnight incubation by luciferase reporter gene assay
MEASURED_PROPERTY: EC50 (nM)

{"SMILES_REPRESENTATION": "O=C(O)CCc1cc2cc(Cl)ccc2n1S(=O)(=O)c1ccccc1", "TARGET_OR_SYSTEM": "Peroxisome proliferator-activated receptor delta (Homo sapiens, UniProt Q03181)", "RECORDED_NUMBER": 1910}
{"SMILES_REPRESENTATION": "COc1ccc(S(=O)(=O)n2c(CCCC(=O)O)cc3cc(C(F)(F)F)ccc32)cc1", "TARGET_OR_SYSTEM": "Peroxisome proliferator-activated receptor delta (Homo sapiens, UniProt Q03181)", "RECORDED_NUMBER": 1260}
{"SMILES_REPRESENTATION": "O=C(O)CCCc1cc2cc(C(F)(F)F)ccc2n1S(=O)(=O)c1ccc(Cl)cc1", "TARGET_OR_SYSTEM": "Peroxisome proliferator-activated receptor delta (Homo sapiens, UniProt Q03181)", "RECORDED_NUMBER": 1650}
{"SMILES_REPRESENTATION": "Nc1nc2ccc(S(=O)(=O)n3c(CCCC(=O)O)cc4cc(Cl)ccc43)cc2o1", "TARGET_OR_SYSTEM": "Peroxisome proliferator-activated receptor delta (Homo sapiens, UniProt Q03181)", "RECORDED_NUMBER": 1390}
{"SMILES_REPRESENTATION": "COc1cccc(S(=O)(=O)n2c(CCCC(=O)O)cc3cc(C(F)(F)F)ccc32)c1", "TARGET_OR_SYSTEM": "Peroxisome proliferator-activated receptor delta (Homo sapiens, UniProt Q03181)", "RECORDED_NUMBER": 1610}
{"SMILES_REPRESENTATION": "O=C(O)CCCc1cc2cc(Cl)ccc2n1S(=O)(=O)c1ccc2c(c1)OCO2", "TARGET_OR_SYSTEM": "Peroxisome proliferator-activated receptor delta (Homo sapiens, UniProt Q03181)", "RECORDED_NUMBER": 977}

(1) COc1cccc(S(=O)(=O)n2c(CCCC(=O)O)cc3cc(Cl)ccc32)c1
(2) CN1CCOc2ccc(S(=O)(=O)n3c(CCCC(=O)O)cc4cc(Cl)ccc43)cc21
(3) O=C(O)CCCc1cc2cc(C(F)(F)F)ccc2n1S(=O)(=O)c1ccc(OC(F)(F)F)cc1
# input Order field: EC50 | Direction: descending (largest first) Dear reader, please state the labels in the requested order.
# output 3, 1, 2
(3: 2100 nM, 1: 1230 nM, 2: 697 nM)
